experiment: Illumination stability experiment (HPLC content); format: physicochemical; conditions: batch 2; 0 h; visible light 5000 ± 500 lx, ultraviolet light 250 μW/cm^2
metric_name: Liquid chromatography content (220 nM, %)
State just the number; it will be interpreted in %.

Some compounds with recorded Liquid chromatography content (220 nM, %):
# compound, observed_value
data = [
    ("CC(C)c1c(O)cc(/C=C/c2ccc(F)cn2)c(F)c1O", 99.46),
    ("CC(C)c1c(O)cc(/C=C/c2ccc(F)cc2)c(F)c1O", 99.30),
]

// fetch Liquid chromatography content (220 nM, %) given entry CC(C)c1c(O)cc(/C=C/c2ccccc2F)c(F)c1O
98.31

Write down Liquid chromatography content (220 nM, %) measured for item CC(C)c1c(O)cc(/C=C/c2ncccc2F)c(F)c1O
98.70

Tell me Liquid chromatography content (220 nM, %) reported for CC(C)c1c(O)cc(/C=C/c2cccc(F)n2)cc1O [Comparative Example 1, reference compound]
96.99

Tell me its Liquid chromatography content (220 nM, %) given CC(C)c1c(O)cc(/C=C/c2cccc(F)n2)c(F)c1O as the entry.
88.32
